target: Cannabinoid receptor 1 (Homo sapiens) (UniProt P21554); assay: Allosteric modulation of CB1 receptor (unknown origin) expressed in HEK293 cell membranes assessed as stimulation of [3H]CP55,940 binding up to 32 uM after 60 mins by liquid scintillation counting analysis
Sequence (P21554 whole entry): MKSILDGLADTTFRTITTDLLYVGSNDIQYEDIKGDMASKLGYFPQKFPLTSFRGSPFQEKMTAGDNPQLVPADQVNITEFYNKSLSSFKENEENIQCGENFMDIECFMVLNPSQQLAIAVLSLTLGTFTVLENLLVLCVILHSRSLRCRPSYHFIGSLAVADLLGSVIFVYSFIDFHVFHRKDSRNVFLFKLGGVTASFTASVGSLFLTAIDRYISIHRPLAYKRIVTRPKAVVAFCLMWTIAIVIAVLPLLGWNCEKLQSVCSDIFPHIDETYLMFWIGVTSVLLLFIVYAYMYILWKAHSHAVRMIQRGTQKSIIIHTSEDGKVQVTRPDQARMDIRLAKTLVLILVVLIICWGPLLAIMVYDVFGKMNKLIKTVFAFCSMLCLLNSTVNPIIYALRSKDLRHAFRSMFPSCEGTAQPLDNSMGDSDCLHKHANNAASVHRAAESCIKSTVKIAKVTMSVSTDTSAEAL
Calls of active or inactive are those of the source. The calls are words filed in the database; no cut-off is given here.
Measured Endpoint: Activity

CCCCCc1c(C(=O)NCc2ccc(N3CCCCC3)cc2)[nH]c2ccc(Cl)cc12	inactive
CN(C)c1ccc(CCNC(=O)c2cc3cc(Cl)ccc3o2)cc1	inactive
O=C(NCCc1ccc(N2CCCCC2)cc1)c1[nH]c2ccc(Cl)cc2c1-c1ccccc1	inactive
O=C(NCCc1ccc(N2CCCCC2)cc1)c1cc2cc(Cl)ccc2o1	inactive
